Tested on: Mycobacterium tuberculosis
Experiment: AntiMycobacterium tuberculosis activity 1-week GAST/Fe MIC (uM)
Format: functional
Conditions: 168 h
measuredEndpoint: MIC (µM)
Give bare numbers, in µM.

Worked cases, answers included:
>>> numericresult("CC(Oc1ccccc1)C(=O)Nc1nc(-c2ccccn2)cs1 (stereo not drawn)")
1.56
>>> numericresult("CN1CCN(CCCOc2ncc(Nc3ncc(-c4ccc(C(F)(F)F)c(F)c4)nc3C(N)=O)cn2)CC1")
1.56
>>> numericresult("O=C1O[C@@H](CO)CN1c1cc(F)c(C2=CCN(Cc3ccccc3)CC2)c(F)c1")
9.4
>>> numericresult("Cc1ccc2nc(Cl)c(CNCc3cccs3)cc2c1")
0.78
>>> numericresult("CCC(C)NC(=O)c1ccc(NC(=O)C2(c3ccccc3)CCCC2)cc1 (stereo not drawn)")
12.5
>>> numericresult("O=C(Nc1cccnc1)c1c(O)c2cccc3c2n(c1=O)CC3")
3.13
>>> numericresult("Cc1ccccc1CN1CCC(O)(c2ccc(Cl)c(C(F)(F)F)c2)CC1")
0.3
>>> numericresult("O=C(C1CCN(c2nnc(-n3cccc3)s2)CC1)N1CCC(Cc2ccccc2)CC1")
0.02
>>> numericresult("CNc1snc(C)c1C(=O)NCCOc1ccc(OC)cc1")
0.2
>>> numericresult("Cc1nc2ccccn2c1C(=O)NCc1ccc(Cl)cc1")
0.05

List reported MIC for each of these compounds:
1. CC(=O)N1CCc2cc3nc(C)cc(C)c3cc21
2. O=C(CCC1CCCCC1)Nc1cccc(-c2nnc(-c3ccco3)o2)c1
3. O=C(COc1cccc(F)c1)Nc1nc(-c2ccccn2)cs1
4. Cc1nn(Cc2ccccc2)c(Cl)c1C(=O)NC1CCCCCC1
5. COc1ccccc1OCCCCn1c(C2CC2)nc2ccccc21
6. Nc1cccnc1Nc1ccc(Cl)cc1
7. COC(=O)c1c(NC(=O)c2c(F)c(F)c(F)c(F)c2F)sc2c1CCCCC2

1. 0.15
2. 1.2
3. 1.2
4. 0.39
5. 0.2
6. 50
7. 0.78

---

Test system: HepG2
Assay: Cytotoxicity data HepG2 CC20 (uM)
Type: functional
CC20 strictly under 10 µM means 1 (yes); at 10 µM or over means 0 (no).

Solved cases (5 shown):
>>> labelclass("Cc1[nH]c2ccccc2c1C(c1cccs1)N1CCN(C)CC1 (stereo unspecified)")
"1 (yes)"
>>> labelclass("CNCCC(Oc1ccc(C(F)(F)F)cc1)c1ccccc1 (stereo unspecified)")
"1 (yes)"
>>> labelclass("O=C(c1ccc(NCCO)cc1)C1C[C@H]1c1ccc(Cl)cc1 (stereo partly specified)")
"0 (no)"
>>> labelclass("Oc1c(I)cc(I)c2cccnc12")
"1 (yes)"
>>> labelclass("Cc1ccc(Oc2ccc(NC(=O)CNc3ccccc3N3CCCC3=O)cc2)cc1")
"0 (no)"

As a next step, examine the compound that follows.
Please state whether CC20 is below 10 µM for CCCCN(CCCC)c1c(C#N)cc(S(=O)(=O)Nc2ccccc2)cc1C#N
0 (no)

---

Exercise: for every item that follows, state its recorded MIC.
System: Mycobacterium tuberculosis
Experiment: AntiMycobacterium tuberculosis activity 2-week Alamar Blue 7H9/cholesterol/BSA/Tx MIC (uM)
Format: functional
Settings: 336 h
Numbers only, in µM.

Worked cases, answers included:
>>> numericresult("COc1ccc(-c2nc(-c3cccc(NC(=O)Cc4ccc(F)cc4)c3)no2)cc1OC")
0.6
>>> numericresult("CC(C)(C(=O)Nc1ccc(F)cc1)n1cc(-c2ccccc2F)cn1")
1.56
>>> numericresult("Cc1ccccc1CN1CCC(O)(c2ccc(Cl)c(C(F)(F)F)c2)CC1")
0.78
>>> numericresult("O=C(C1CCN(c2cc(-n3cccc3)ncn2)CC1)N1CCc2ccccc2C1")
3.13
>>> numericresult("N#Cc1nc(-c2ccccc2F)oc1NCCc1ccccc1")
12.5
>>> numericresult("Cc1ccc(NC(=O)CC2COc3ccccc3O2)cc1Cl (configuration not stated)")
25
>>> numericresult("CC(=O)NCC1CN(c2ccc(-c3ccc(CNCc4cn[nH]n4)cc3)c(F)c2)C(=O)O1 (configuration not stated)")
0.39
>>> numericresult("Cc1ccc2[nH]c(C3CCCNC3)c(-c3ccncc3)c2c1 (configuration not stated)")
9.4
>>> numericresult("COc1cccc(OC)c1C(=O)Nc1ccc(Cl)c(-c2nc3ccccc3s2)c1")
19
>>> numericresult("O=C1O[C@@H](CO)CN1c1cc(F)c(C2=CCN(Cc3ccccc3)CC2)c(F)c1")
4.7

List reported MIC for each of these molecules:
1. NCC(c1cccs1)S(=O)(=O)c1ccccc1 (configuration not stated)
2. COc1cccc(OCC(=O)c2ccc(Br)cc2)c1
3. Cc1cc(O)nc(-n2nc(C)cc2C)n1
4. O=C1O[C@@H](COc2ccon2)CN1c1cc(F)c(C2=CCN(Cc3ccccc3)CC2)c(F)c1
5. Nc1nc2cc(-c3cncc(Oc4ccc(F)cc4)c3)ccc2[nH]1
6. Cc1cnc(N2CCN[C@@H](Cc3ccccc3)C2)nc1Oc1ccc(-n2ccnc2)cc1

1: 50; 2: 50; 3: 25; 4: 0.6; 5: 12.5; 6: 50

List reported MIC for each of these molecules:
1. CCCc1ccc(S(=O)(=O)Nc2ccc(CN3CCN(CC4CC4)CC3)cc2)cc1
2. O=C(NCc1ccoc1)N1CCN(Cc2ccc3c(c2)OCO3)CC1
3. C[C@]1(COc2ccc(N3CCC(Oc4ccc(OC(F)(F)F)cc4)CC3)cc2)Cn2cc([N+](=O)[O-])nc2O1

1: 6.25; 2: 2.3; 3: 0.6
